Each recorded value in this set is attributed to ChEMBL document CHEMBL4425190.

Measured inhibition values are reported for all entries that follow.
Target: UniProtKB P23739
Sequence (P23739 1-1013 limits assumed): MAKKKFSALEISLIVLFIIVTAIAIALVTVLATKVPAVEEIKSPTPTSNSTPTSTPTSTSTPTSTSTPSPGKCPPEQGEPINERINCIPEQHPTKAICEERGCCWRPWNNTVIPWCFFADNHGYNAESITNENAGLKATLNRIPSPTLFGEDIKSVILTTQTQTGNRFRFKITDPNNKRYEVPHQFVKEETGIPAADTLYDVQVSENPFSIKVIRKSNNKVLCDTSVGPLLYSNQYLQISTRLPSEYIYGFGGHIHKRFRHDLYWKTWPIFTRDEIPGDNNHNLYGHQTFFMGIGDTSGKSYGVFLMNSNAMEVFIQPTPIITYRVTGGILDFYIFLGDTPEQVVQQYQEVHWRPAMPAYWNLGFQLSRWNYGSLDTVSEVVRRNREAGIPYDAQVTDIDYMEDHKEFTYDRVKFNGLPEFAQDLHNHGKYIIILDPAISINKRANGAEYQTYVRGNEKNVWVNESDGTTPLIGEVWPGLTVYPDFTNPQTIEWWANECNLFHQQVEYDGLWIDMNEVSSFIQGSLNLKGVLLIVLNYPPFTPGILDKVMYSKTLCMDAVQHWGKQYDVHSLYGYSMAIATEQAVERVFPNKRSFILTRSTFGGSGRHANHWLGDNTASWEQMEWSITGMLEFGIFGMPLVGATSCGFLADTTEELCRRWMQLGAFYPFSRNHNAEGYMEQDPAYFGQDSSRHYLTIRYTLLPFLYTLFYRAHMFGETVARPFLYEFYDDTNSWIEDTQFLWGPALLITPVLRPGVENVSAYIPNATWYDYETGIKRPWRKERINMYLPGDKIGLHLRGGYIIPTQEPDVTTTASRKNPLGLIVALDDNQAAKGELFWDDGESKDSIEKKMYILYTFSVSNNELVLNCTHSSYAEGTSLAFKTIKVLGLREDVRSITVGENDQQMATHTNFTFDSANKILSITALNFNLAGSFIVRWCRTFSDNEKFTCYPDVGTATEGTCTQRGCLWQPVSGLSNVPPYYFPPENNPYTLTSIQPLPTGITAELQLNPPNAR
Sequence (P23739 1014-1841 limits assumed): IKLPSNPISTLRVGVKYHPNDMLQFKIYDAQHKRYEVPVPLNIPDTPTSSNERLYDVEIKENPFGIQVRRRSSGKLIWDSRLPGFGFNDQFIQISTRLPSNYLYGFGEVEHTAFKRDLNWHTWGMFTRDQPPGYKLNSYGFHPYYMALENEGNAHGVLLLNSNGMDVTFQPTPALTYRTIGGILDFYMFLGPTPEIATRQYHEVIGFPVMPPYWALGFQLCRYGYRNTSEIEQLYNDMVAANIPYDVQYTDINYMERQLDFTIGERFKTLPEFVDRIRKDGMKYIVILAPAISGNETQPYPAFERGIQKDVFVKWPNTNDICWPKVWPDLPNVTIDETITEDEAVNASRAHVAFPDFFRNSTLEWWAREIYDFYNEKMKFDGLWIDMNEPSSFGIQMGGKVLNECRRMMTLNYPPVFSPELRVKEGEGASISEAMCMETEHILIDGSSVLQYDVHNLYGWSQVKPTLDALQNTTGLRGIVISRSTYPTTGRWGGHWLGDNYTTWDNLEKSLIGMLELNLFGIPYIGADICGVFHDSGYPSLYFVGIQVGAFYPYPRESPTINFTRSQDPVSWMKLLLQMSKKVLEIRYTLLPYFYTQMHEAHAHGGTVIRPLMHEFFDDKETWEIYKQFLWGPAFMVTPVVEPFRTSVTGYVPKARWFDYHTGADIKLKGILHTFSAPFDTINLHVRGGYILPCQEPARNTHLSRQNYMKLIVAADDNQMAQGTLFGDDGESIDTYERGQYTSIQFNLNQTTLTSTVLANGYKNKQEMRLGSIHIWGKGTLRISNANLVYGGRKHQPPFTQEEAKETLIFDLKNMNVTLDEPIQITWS
Test details: Inhibition of rat small intestinal sucrase using sucrose as substrate assessed as amount of liberated glucose at 1 mM after 30 mins by glucose oxidase method
Only the number, expressed in %, is required.

[[record]]
compound = "C[C@](O)(CC(=O)O)CC(=O)O[C@@H]1[C@@H](O)[C@H](OCc2ccccc2)O[C@H](CO)[C@H]1O"
target = "UniProtKB P23739"
recorded_value = 88.4

[[record]]
compound = "CC(=O)OC[C@H]1O[C@@H](O[C@H](C)/C=C/[C@@]2(O)C(C)=CC(=O)CC2(C)C)[C@H](O)[C@@H](O)[C@@H]1O"
target = "UniProtKB P23739"
recorded_value = 29.8

[[record]]
compound = "COc1cc([C@H]2c3c(cc(OC)c(O)c3OC)C[C@H](CO)[C@H]2CO)cc(OC)c1O"
target = "UniProtKB P23739"
recorded_value = 57.5

[[record]]
compound = "COc1cc([C@H]2c3c(cc(OC)c(O)c3OC)C[C@H](CO)[C@H]2CO[C@@H]2O[C@H](CO)[C@@H](O)[C@H](O)[C@H]2O)cc(OC)c1O"
target = "UniProtKB P23739"
recorded_value = 10.8

[[record]]
compound = "COc1cc([C@@H]2c3c(cc(OC)c(O)c3OC)C[C@H](CO)[C@H]2CO[C@@H]2O[C@H](CO)[C@@H](O)[C@H](O)[C@H]2O)cc(OC)c1O"
target = "UniProtKB P23739"
recorded_value = 66.3

[[record]]
compound = "COc1cc([C@H]2OC[C@H]3[C@@H]2CO[C@@H]3c2ccc(O)c(OC)c2)ccc1O"
target = "UniProtKB P23739"
recorded_value = 51.3

[[record]]
compound = "COc1cc(C[C@H]2CO[C@H](c3cc(OC)c(O)c(OC)c3)[C@H]2CO[C@@H]2O[C@H](CO)[C@@H](O)[C@H](O)[C@H]2O)cc(OC)c1O"
target = "UniProtKB P23739"
recorded_value = 81.6

[[record]]
compound = "CC1=CC(=O)CC(C)(C)[C@@]1(O)/C=C/[C@@H](C)O[C@@H]1O[C@H](CO)[C@@H](O)[C@H](O)[C@H]1O"
target = "UniProtKB P23739"
recorded_value = 23.7

[[record]]
compound = "COc1cc(/C=C/CO)cc(OC)c1O[C@H]1O[C@H](CO)[C@@H](O)[C@H](O)[C@H]1O"
target = "UniProtKB P23739"
recorded_value = 14.6

[[record]]
compound = "COc1cc(/C=C/CO)cc(O[C@@H]2O[C@H](CO)[C@@H](O)[C@H](O)[C@H]2O[C@@H]2OC[C@](O)(CO)[C@H]2O)c1OC"
target = "UniProtKB P23739"
recorded_value = 31.3


I would be grateful if you could share the reported inhibition for `CC1=CC(=O)CC(C)(C)[C@@]1(O)/C=C/[C@@H](C)O[C@@H]1O[C@H](CO[C@@H]2OC[C@](O)(CO)[C@H]2O)[C@@H](O)[C@H](O)[C@H]1O` .
35.1

Item: CC1=CC(=O)CC(C)(C)C1/C=C/[C@@H](C)O[C@@H]1O[C@H](CO[C@@H]2OC[C@](O)(CO)[C@H]2O)[C@@H](O)[C@H](O)[C@H]1O (some centres undefined)
13.6

Field entry: `N#C[C@H](O[C@@H]1O[C@H](CO[C@@H]2O[C@H](CO)[C@@H](O)[C@H](O)[C@H]2O)[C@@H](O)[C@H](O)[C@H]1O)c1ccccc1`
50.4

Can you check `COc1cc(/C=C/CO)ccc1O[C@@H]1O[C@H](CO)[C@@H](O)[C@H](O)[C@H]1O` next?
11
